# target_desc: T1, human FRα (Homo sapiens, UniProt P15328)
# T1 construct: CD33 leader (signal peptide) (N, cleaved yes); made in house; host or cells: in-house suspension-adapted CHO cell line
# protocol_summary: Biacore T200 surface plasmon resonance affinity
# Type: binding
# condition_summary: SPR 25° C.
For each of the molecules below, state its kd.

Asked: Assign kd to the following record: AB1370083: anti-FRα fully human IgG1 antibody; VH SEQ ID NO: 43, VL SEQ ID NO: 44 (antibody, V domains shown) VH: EVQLVESGGGLVKPGGSLRLSCAASGFTFSSYNMNWVRQAPGKGLEWVSSISSGSSYIYYADSMKGRFTISRDNAKNSLFLQMNSLRAEDTAVYYCARGMTTLTFDYWGQGTLVTVSS VL: DIQMTQSPSSLSASVGDRVTITCRASQGISTFLAWFQQKPGKAPKSLIYAASSLQSGVPSKFSGSGSETDFTLTISSLQPEDFATYYCQQYISYPLTFGGGTKVEIK
Given back: 0.000135 s⁻¹

Asked: Give me measured kd, please, for this molecule: AB1370035: anti-FRα fully human IgG1 antibody; VH SEQ ID NO: 41, VL SEQ ID NO: 42 (antibody, V domains shown) VH: QVQLQQSGPGLVKPSQTLSLTCAISGDSVSSNSAAWNWIRQSPSRGLEWLGRTYYRSNWYNDYTLSVKSRITVNPDTSKNQFSLQLNSVTPEDTAVYYCVRGVGRFDSWGQGTLVTVSS VL: DIQMTQSPSTLSASVGDRVIITCRASQSISSWLAWYQQKPGKAPKLLIYKASSLESGVPSRFSGSGSGTEFTLTITSLQPDDFASYYCQEYKTYSIFTFGPGTKVDIK
Given back: 0.000527 s⁻¹

Asked: Return kd for the following molecule: AB1370026: anti-FRα fully human IgG1 antibody; VH SEQ ID NO: 39, VL SEQ ID NO: 40 (antibody, V domains shown) VH: EVQLVESGGGLVKPGGSLRLSCAASGFTFSSYAMSWVRQAPGKGLEWVSSISSGRSYIYYADSVKGRFTISRDNAKNSLYLKMNSLRDEDTAVYYCAREMQQLALDYWGQGTLVTVSS VL: DIQMTQSPSSLSASVGDRVTITCRASQGISNFLAWFQQAPGKAPKSLIYAASSLQSGVPSKFSGSGSGTDFTLTISSLQPEDFATYYCQQYNSYPFTFGQGTKLEIK
Given back: 0.000354 s⁻¹
